B1: CCDC89 (parent)
chain: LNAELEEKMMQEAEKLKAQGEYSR

Variants of: B1
Test protocol: protein stability index of a GFP-peptide fusion (GPS, HEK-293T) (PSI 1-6); higher = more stable;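 also: lentivirally expressed fusions sorted by FACS into six bins by GFP to DsRed ratio, PSI derived from sequencing read proportions per bin multiplied by bin number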
Applied conditions: c terminus: a fixed tail appended
Readout type: protein stability index
// no unit, no text: just the number

Given the variant LNAELEEKMMQEVEKLKAQGEYSR [A13V] , what is its reported protein stability index?
4.64

Same thing, different variant: LNAKLEEKMMQEAEKLKAQGEYSR [E4K]
3.96

Same thing, different variant: LNAELEEKMMQEAEKLKIQGEYSR [A18I]
4.32

Same thing, different variant: TNAELEEKMMQEAEKLKAQGEYSR [L1T]
4.98

Same thing, different variant: LNAELEMKMMQEAEKLKAQGEYSR [E7M]
4.54

Same thing, different variant: LNAELEEKMMQEAEKLKAQGEMSR [Y22M]
5.29

Same thing, different variant: MNAELEEKMMQEAEKLKAQGEYSR [L1M]
5.2

Same thing, different variant: LNAELEEKMMQEAEKLKAQGCYSR [E21C]
4.29

Same thing, different variant: LNQELEEKMMQEAEKLKAQGEYSR [A3Q]
4.97

Same thing, different variant: LNAELEEKMEQEAEKLKAQGEYSR [M10E]
5.39

Same thing, different variant: LNAELEEKMMQEAAKLKAQGEYSR [E14A]
4

Data origin: the supplement of paper PMC10567573
